- assay method text: AUCinfinity in Sprague-Dawley rat at 1 mg/kg, iv measured after 24 hrs by LCMS analysis
- Type: ADME, organism-based
- Parameters: dose 1 mg/kg, route intravenous, time infinity
- particulars: in vivo
property name: AUC(0-inf) (ng·h/mL)
Give bare numbers, in ng·h/mL.

# input Provide only the value of recorded AUC(0-inf) for Cl.N#Cc1ccc(Nc2nccc(Nc3c(F)cc(-c4ccc(C#N)cc4)cc3F)n2)cc1
# output 3640

---

- assay method text: AUC in Sprague-Dawley rat at 1 mg/kg, iv measured after 24 hrs by LCMS analysis
- Assay type: ADME, organism-based
- Design: time < 24 hr, dose 1 mg/kg, route intravenous
- particulars: in vivo
property name: AUC at 24 h (ng·h/mL)
Numbers only, in ng·h/mL.

# input Provide only the value of recorded AUC at 24 h for Cl.N#Cc1ccc(Nc2nccc(Nc3c(F)cc(-c4ccc(C#N)cc4)cc3F)n2)cc1
# output 3560

---

- assay method text: Half life in Sprague-Dawley rat at 1 mg/kg, iv measured after 24 hrs by LCMS analysis
- Assay type: ADME, organism-based
- particulars: in vivo
property name: half-life

# input Provide only the value of recorded half-life for Cl.N#Cc1ccc(Nc2nccc(Nc3c(F)cc(-c4ccc(C#N)cc4)cc3F)n2)cc1
# output 4.18 h

---

- assay method text: AUC in Sprague-Dawley rat at 10 mg/kg, po via gavage administration measured after 24 hrs by LCMS analysis
- Format: ADME, organism-based
- Set-up: dose 10 mg/kg, time < 24 hr, route oral
- particulars: in vivo
property name: AUC at 24 h (ng·h/mL)
Answers are plain numbers, in ng·h/mL.

# input Provide only the value of recorded AUC at 24 h for Cl.N#Cc1ccc(Nc2nccc(Nc3c(F)cc(-c4ccc(C#N)cc4)cc3F)n2)cc1
# output 12100

---

- assay method text: AUCinfinity in Sprague-Dawley rat at 10 mg/kg, po via gavage administration measured after 24 hrs by LCMS analysis
- Type: ADME, organism-based
- Set-up: dose 10 mg/kg, time infinity, route oral
- particulars: in vivo
property name: AUC(0-inf) (ng·h/mL)
Give bare numbers, in ng·h/mL.

# input Provide only the value of recorded AUC(0-inf) for Cl.N#Cc1ccc(Nc2nccc(Nc3c(F)cc(-c4ccc(C#N)cc4)cc3F)n2)cc1
# output 12200

---

- assay method text: Tmax in Sprague-Dawley rat at 10 mg/kg, po via gavage administration measured after 24 hrs by LCMS analysis
- Type: ADME, organism-based
- particulars: in vivo
property name: Tmax (h)
One number for each entry, in h.

# input Provide only the value of recorded Tmax for Cl.N#Cc1ccc(Nc2nccc(Nc3c(F)cc(-c4ccc(C#N)cc4)cc3F)n2)cc1
# output 6.67

---

Provide the recorded microsomal CLint at 1 µM for the entries that follow.
- assay method text: Intrinsic clearance in human liver microsomes assessed per mg protein at 1 uM measured up to 45 mins in presence of NADPH by LC/MS/MS analysis
- Format: ADME, Microsome
- particulars: read-out: CLH
Answers are plain numbers, in µL/min/mg.

Cc1cc(-c2ccc(C#N)cc2)cc(C)c1Nc1ccnc(Nc2ccc(C#N)cc2)n1: 47.4

Now consider the entry below.
# input Provide only the value of recorded microsomal CLint at 1 µM for Cl.N#Cc1ccc(Nc2nccc(Nc3c(F)cc(-c4ccc(C#N)cc4)cc3F)n2)cc1
# output 21.9
